test_summary: Inhibition of Bovine heart ATP synthase assessed as inhibition constant by Michaelis-Menten plot analysis
Parameters: species or system Bos taurus
condition_set: read-out: Ki
Non-standard residues stand in square brackets, D forms with d. Residues, ends and D or L forms follow the SMILES beside them. *: point of attachment. Leu(3R-OH) = CC(C)[C@@H](O)[C@H](N)C(=O)O; NH((S)CH(Me)CH2NMe2) = C[C@@H](CN(C)C)N*; Pro(4S-Me) = C[C@@H]1CN[C@H](C(=O)O)C1; NH(1-CH2NMe2-cBu) = CN(C)CC1(N*)CCC1; Oxazole4CO(2-Me) = Cc1nc(C(=O)*)co1; Benzoyl(4-F) = O=C(c1ccc(F)cc1)*; hCha = N[C@@H](CCC1CCCCC1)C(=O)O; Tle = CC(C)(C)[C@H](N)C(=O)O; Aib = CC(C)(N)C(=O)O; βAla = NCCC(=O)O
measure_name: Ki
# output: number + unit

compound | Ki
CC(C)C[C@H](NC(=O)[C@H](CCC1CCCCC1)NC(=O)[C@@H]1C[C@H](C)CN1C(=O)c1ccc(F)cc1)C(=O)NC(C)(C)C(=O)N[C@@H](CC(C)C)C(=O)N[C@@H](CC(C)C)C(=O)NC(C)(C)C(=O)NC(C)(C)C(=O)NCCC(=O)N[C@@H](C)CN(C)C ({Benzoyl(4-F)}-[Pro(4S-Me)][hCha]L[Aib]LL[Aib][Aib][βAla]-{NH((S)CH(Me)CH2NMe2)}) | 0.084 µM

State the recorded Ki for every item in the following list.
1. CC(C)C[C@H](NC(=O)[C@H](CC(C)C)NC(=O)C(C)(C)NC(=O)[C@@H](NC(=O)[C@H](CCC1CCCCC1)NC(=O)[C@@H]1CCCN1C(=O)c1ccc(F)cc1)[C@H](O)C(C)C)C(=O)NC(C)(C)C(=O)NC(C)(C)C(=O)NCCC(=O)N[C@@H](C)CN(C)C ({Benzoyl(4-F)}-P[hCha][Leu(3R-OH)][Aib]LL[Aib][Aib][βAla]-{NH((S)CH(Me)CH2NMe2)})
2. Cc1nc(C(=O)N2CCC[C@H]2C(=O)N[C@H](C(=O)N[C@@H](CC(C)C)C(=O)NC(C)(C)C(=O)N[C@@H](CC(C)C)C(=O)N[C@@H](CC(C)C)C(=O)NC(C)(C)C(=O)NC(C)(C)C(=O)NCCC(=O)NC2(CN(C)C)CCC2)C(C)(C)C)co1 ({Oxazole4CO(2-Me)}-P[Tle]L[Aib]LL[Aib][Aib][βAla]-{NH(1-CH2NMe2-cBu)})

1. 0.134 µM
2. 16.2 µM

---

test_summary: Cytotoxicity against rat L6 cells assessed as cell viability
Type: toxicity, cell-based
pIC50: −log10 of the molar value. Starred links: 1 amine or outer side, 2 acyl side, 3 side chain; linkers in the order of their positions; H or OH if unused. Non-standard residues stand in square brackets, D forms with d. Residues, ends and D or L forms follow the SMILES beside them. *: point of attachment. X1 = CCC(=O)C[C@@H](O)C[C@@H](C)C[C@H](N[*:1])C(=O)[*:2]; Hexenoyl(2E,4S-Me) = CC[C@H](C)/C=C/C(=O)*; Leu(3R-OH) = CC(C)[C@@H](O)[C@H](N)C(=O)O; NH((S)CH(Me)CH2NMe2) = C[C@@H](CN(C)C)N*; Pro(4S-Me) = C[C@@H]1CN[C@H](C(=O)O)C1; NH(1-CH2NMe2-cBu) = CN(C)CC1(N*)CCC1; Oxazole4CO(2-Me) = Cc1nc(C(=O)*)co1; Tle = CC(C)(C)[C@H](N)C(=O)O; Nle = CCCC[C@H](N)C(=O)O; Aib = CC(C)(N)C(=O)O; βAla = NCCC(=O)O; tBu = CC(C)(C)*
Give measured pIC50 for each item. Keep answers brief.

Solved cases (3 shown):
compound | pIC50
Cc1nc(C(=O)N2CCC[C@H]2C(=O)N[C@H](C(=O)N[C@@H](CC(C)C)C(=O)NC(C)(C)C(=O)N[C@@H](CC(C)C)C(=O)N[C@@H](CC(C)C)C(=O)NC(C)(C)C(=O)NC(C)(C)C(=O)NCCC(=O)NC2(CN(C)C)CCC2)C(C)(C)C)co1 ({Oxazole4CO(2-Me)}-P[Tle]L[Aib]LL[Aib][Aib][βAla]-{NH(1-CH2NMe2-cBu)}) | < 5.05
CCCC[C@H](NC(=O)[C@@H]1CCCN1C(=O)c1coc(C)n1)C(=O)N[C@@H](CC(C)C)C(=O)NC(C)(C)C(=O)N[C@@H](CC(C)C)C(=O)N[C@@H](CC(C)C)C(=O)NC(C)(C)C(=O)NC(C)(C)C(=O)NCCC(=O)NC1(CN(C)C)CCC1 ({Oxazole4CO(2-Me)}-P[Nle]L[Aib]LL[Aib][Aib][βAla]-{NH(1-CH2NMe2-cBu)}) | < 5.06
CCC(=O)C[C@@H](O)C[C@@H](C)C[C@H](NC(=O)[C@@H]1C[C@H](C)CN1C(=O)/C=C/[C@@H](C)CC)C(=O)N[C@H](C(=O)NC(C)(C)C(=O)N[C@@H](CC(C)C)C(=O)N[C@@H](CC(C)C)C(=O)NC(C)(C)C(=O)NC(C)(C)C(=O)NCCC(=O)N[C@@H](C)CN(C)C)[C@H](O)C(C)C ({Hexenoyl(2E,4S-Me)}-[Pro(4S-Me)][X1][Leu(3R-OH)][Aib]LL[Aib][Aib][βAla]-{NH((S)CH(Me)CH2NMe2)}) | 6.59

Consider the additional compound presented here.
Given the entry Cc1nc(C(=O)N2CCC[C@H]2C(=O)N[C@@H](COC(C)(C)C)C(=O)N[C@@H](CC(C)C)C(=O)NC(C)(C)C(=O)N[C@@H](CC(C)C)C(=O)N[C@@H](CC(C)C)C(=O)NC(C)(C)C(=O)NC(C)(C)C(=O)NCCC(=O)NC2(CN(C)C)CCC2)co1 ({Oxazole4CO(2-Me)}-PS(tBu)L[Aib]LL[Aib][Aib][βAla]-{NH(1-CH2NMe2-cBu)}) , report its measured pIC50. < 5.06

---

test_summary: Inhibition of Bovine heart ATP synthase assessed as inhibition constant by Michaelis-Menten plot analysis
Set-up: species or system Bos taurus
condition_set: read-out: Ki
Non-standard residues stand in square brackets, D forms with d. Residues, ends and D or L forms follow the SMILES beside them. *: point of attachment. Hexenoyl(2E,4S-Me) = CC[C@H](C)/C=C/C(=O)*; Leu(3R-OH) = CC(C)[C@@H](O)[C@H](N)C(=O)O; NH((S)CH(Me)CH2NMe2) = C[C@@H](CN(C)C)N*; Pro(4S-Me) = C[C@@H]1CN[C@H](C(=O)O)C1; hCha = N[C@@H](CCC1CCCCC1)C(=O)O; Aib = CC(C)(N)C(=O)O; βAla = NCCC(=O)O
measure_name: pKi
Numbers only, as −log10 of the molar value.

Given the entry CC[C@H](C)/C=C/C(=O)N1C[C@@H](C)C[C@H]1C(=O)N[C@@H](CCC1CCCCC1)C(=O)N[C@H](C(=O)NC(C)(C)C(=O)N[C@@H](CC(C)C)C(=O)N[C@@H](CC(C)C)C(=O)NC(C)(C)C(=O)NC(C)(C)C(=O)NCCC(=O)N[C@@H](C)CN(C)C)[C@H](O)C(C)C ({Hexenoyl(2E,4S-Me)}-[Pro(4S-Me)][hCha][Leu(3R-OH)][Aib]LL[Aib][Aib][βAla]-{NH((S)CH(Me)CH2NMe2)}) , report its measured pKi. 7.66
